test system: rodent lifetime carcinogenesis bioassay, tumor incidence TD50; assay: carcinogenic potency in animals, long-term in vivo studies, CPDB compilation (AID 1745844); details: rat; strain Wistar; males; in drinking water; site: stomach, glandular; lesion: adenoma; dosed 52 weeks; study length 65 weeks
Measured endpoint: TD50

I'm curious: which TD50 was measured for `CCCN(N=O)/C(N)=N/[N+](=O)[O-]` tested on rodent lifetime carcinogenesis bioassay, tumor incidence TD50?
0.919 mg/kg/day

###

system: rodent lifetime carcinogenesis bioassay, tumor incidence TD50; assay: carcinogenic potency in animals, long-term in vivo studies, CPDB compilation (AID 1745844); settings: rat; strain Fischer 344; females; by gavage; site: mammary gland; lesion: fibroadenoma; dosed 37 weeks; study length 102 weeks
Measured endpoint: TD50

So what does the record say about TD50 for `CCNC(=O)N(C=O)CCN(C)C` ?
0.704 mg/kg/day

###

test system: rodent lifetime carcinogenesis bioassay, tumor incidence TD50; test: carcinogenic potency in animals, long-term in vivo studies, CPDB compilation (AID 1745844); details: mouse; strain B6C3F1; males; in feed; site: kidney; lesion: renal-cell adenoma; dosed 96 weeks; study length 104 weeks
Measured endpoint: TD50

So what does the record say about TD50 for `CCOc1ccc(NC(C)=O)cc1` ?
1100 mg/kg/day

###

test system: rodent lifetime carcinogenesis bioassay, tumor incidence TD50; assay: carcinogenic potency in animals, long-term in vivo studies, CPDB compilation (AID 1745844); settings: rat; strain F344/DuCrj; males; in feed; site: small intestine; lesion: several types; types named in the paper; dosed 104 weeks; study length 104 weeks
Measured endpoint: TD50

I'm curious: which TD50 was measured for `Nc1ccc2nc3ccccn3c2n1` tested on rodent lifetime carcinogenesis bioassay, tumor incidence TD50?
33.8 mg/kg/day

###

system: rodent lifetime carcinogenesis bioassay, tumor incidence TD50; test: carcinogenic potency in animals, long-term in vivo studies, CPDB compilation (AID 1745844); conditions: rat; strain Fischer 344; males; in drinking water; site: liver; lesion: hemangiosarcoma; dosed 30 weeks; study length 55 weeks
// reported TD50 for each item listed

INSERT INTO assay_data (structure_smiles_string, target_or_test_system, measured_endpoint, reported_measurement) VALUES
  ('CCN=[N+]([O-])CC', 'rodent lifetime carcinogenesis bioassay, tumor incidence TD50', 'TD50', '0.0347 mg/kg/day');

Field: next molecule
So what does the record say about TD50 for `CC[N+]([O-])=NC` ?
0.0391 mg/kg/day

###

test system: rodent lifetime carcinogenesis bioassay, tumor incidence TD50; test: carcinogenic potency in animals, long-term in vivo studies, CPDB compilation (AID 1745844); settings: mouse; strain CD-1 HaM/ICR; males; in feed; site: lung; lesion: one or several types; types not named; dosed 104 weeks; study length 104 weeks
Active and inactive are the calls of the source. The rule behind the calls is not given here.
Measured endpoint: TD50

So what does the record say about TD50 for `O=C1NS(=O)(=O)c2ccccc21` ?
1360 mg/kg/day (inactive)

###

test system: rodent lifetime carcinogenesis bioassay, tumor incidence TD50; assay: carcinogenic potency in animals, long-term in vivo studies, CPDB compilation (AID 1745844); details: rat; strain Fischer 344; females; in drinking water; site: lung; lesion: alveolar/bronchiolar adenoma; dosed 60 weeks; study length 60 weeks
Measured endpoint: TD50 (mg/kg/day)
Respond with the bare value in mg/kg/day.

So what does the record say about TD50 for `Cc1cc(-c2ccc(N)c(C)c2)ccc1N` ?
13.6
